The entries below are paired with their reported Arbitrary Fluorescence Units.
# measurement.target: S100A4 (Homo sapiens)
# Construct: It is a chemical label, not a fused protein
# experimental.details: S100A4 biosensor (Mero-S100A4) fluorescence assay for S100A4 inhibitors
# Assay type: biochemical
# applied.conditions: screening assay: 5 μM S100A4 biosensor (dimer), 100 μM FDA approved drug, 0.3 mM CaCl2; controls: no addition 8475, calcium 14996, calcium + EGTA 6088

Look over these answered cases.
compound	value.kind	reported.result
CN(C)C(=O)C(CCN1CCC(O)(c2ccc(Cl)cc2)CC1)(c1ccccc1)c1ccccc1 [loperamide]	Arbitrary Fluorescence Units	3820 Arbitrary Fluorescence Units
CN1CCN(CCCN2c3ccccc3Sc3ccc(Cl)cc32)CC1 [prochlorperazine]	Arbitrary Fluorescence Units	5505 Arbitrary Fluorescence Units
CC(C)COCC(CN(Cc1ccccc1)c1ccccc1)N1CCCC1 (stereo not shown) [bepridil]	Arbitrary Fluorescence Units	6954 Arbitrary Fluorescence Units
OCCN1CCN(CCCN2c3ccccc3Sc3ccc(Cl)cc32)CC1 [perphenazine]	Arbitrary Fluorescence Units	7399 Arbitrary Fluorescence Units
CN1CCN(CCCN2c3ccccc3Sc3ccc(C(F)(F)F)cc32)CC1 [trifluoperazine]	Arbitrary Fluorescence Units	7939 Arbitrary Fluorescence Units
OCCN1CCN(CC/C=C2/c3ccccc3Sc3ccc(C(F)(F)F)cc32)CC1 [flupenthixol-cis]	Arbitrary Fluorescence Units	6449 Arbitrary Fluorescence Units
CN(C)CCCN1c2ccccc2CCc2ccc(Cl)cc21 [clomipramine]	Arbitrary Fluorescence Units	7898 Arbitrary Fluorescence Units
CC(=O)N1CCN(c2ccc(OCC3COC(Cn4ccnc4)(c4ccc(Cl)cc4Cl)O3)cc2)CC1 (stereo not shown) [ketoconazole]	Arbitrary Fluorescence Units	7759 Arbitrary Fluorescence Units
OCCN1CCN(CCCN2c3ccccc3Sc3ccc(C(F)(F)F)cc32)CC1 [fluphenazine]	Arbitrary Fluorescence Units	6908 Arbitrary Fluorescence Units

Here is another compound to look at.
Request: Please supply the value of reported Arbitrary Fluorescence Units for the item CN(C)CC/C=C1/c2ccccc2Sc2ccc(Cl)cc21 [chlorprothixene]
Result: 7977 Arbitrary Fluorescence Units

====

# measurement.target: S100A4 (Homo sapiens, UniProt P26447)
# Construct: It is a chemical label, not a fused protein
# Sequence (P26447 whole entry C3A/C76A/C86A, form open, the tested form may be a part): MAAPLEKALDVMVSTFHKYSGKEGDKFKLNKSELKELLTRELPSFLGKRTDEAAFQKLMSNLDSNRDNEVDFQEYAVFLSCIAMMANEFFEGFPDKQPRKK
# experimental.details: S100A4 biosensor (Mero-S100A4) fluorescence assay for S100A4 inhibitors
# Assay type: biochemical
# applied.conditions: 5 μM S100A4 biosensor, 0-400 μM small molecule inhibitor, 0.3 mM CaCl2 buffer
value.kind: IC50 (µM)

molecule	IC50 (µM)
CN1CCN(CCCN2c3ccccc3Sc3ccc(Cl)cc32)CC1	33
CC(C)COCC(CN(Cc1ccccc1)c1ccccc1)N1CCCC1 (centres unmarked)	35
CN(C)CCCN1c2ccccc2CCc2ccc(Cl)cc21	133
OCCN1CCN(CCCN2c3ccccc3Sc3ccc(C(F)(F)F)cc32)CC1	46

(A) CC(=O)N1CCN(c2ccc(OCC3COC(Cn4ccnc4)(c4ccc(Cl)cc4Cl)O3)cc2)CC1 (centres unmarked)
(B) CN(C)CC/C=C1/c2ccccc2Sc2ccc(Cl)cc21
Request: Which of the two items, A and B , has the greater recorded IC50? Use the label to indicate which entry you chose.
Result: B

====

# measurement.target: S100A4 (Homo sapiens, UniProt P26447)
# Construct: It is a chemical label, not a fused protein
# experimental.details: S100A4 biosensor (Mero-S100A4) fluorescence assay for S100A4 inhibitors
# Assay type: biochemical
# applied.conditions: 5 μM S100A4 biosensor, 0-400 μM small molecule inhibitor, 0.3 mM CaCl2 buffer
pIC50: −log10 of the molar value.
value.kind: pIC50

molecule	measurement.target	pIC50
OCCN1CCN(CCCN2c3ccccc3Sc3ccc(Cl)cc32)CC1	S100A4 (Homo sapiens, UniProt P26447)	3.79
CN(C)C(=O)C(CCN1CCC(O)(c2ccc(Cl)cc2)CC1)(c1ccccc1)c1ccccc1 [loperamide]	S100A4 (Homo sapiens, UniProt P26447)	4.74

(a) CN1CCC(=C2c3ccccc3C=Cc3ccccc32)CC1
(b) CN1CCN(CCCN2c3ccccc3Sc3ccc(C(F)(F)F)cc32)CC1
(c) OCCN1CCN(CC/C=C2/c3ccccc3Sc3ccc(C(F)(F)F)cc32)CC1 [flupenthixol-cis]
Request: Highest pIC50 first, then in falling order down to the smallest. List each label, following the requested order.
Result: b, c, a
